# credit: paper PMC9482650

Target: T1, DVL3, Q92997
T1 sequence (Q92997 244-331, limits assumed, looked up): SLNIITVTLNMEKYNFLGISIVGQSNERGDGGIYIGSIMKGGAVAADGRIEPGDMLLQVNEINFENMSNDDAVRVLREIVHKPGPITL
Assay: holdup assay
Set-up: key: below the threshold = too weak to quantify, mostly under pKd 3.1 to 4
Conditions: plain residues with an end cap or a label only (N-terminal biotin on a linker: ado-ado)
readoutType: pKd

The examples below pair each entry with its known result.
GEDRSPPTAL [MKNK1, Q9BUB5]; below the threshold
RDPPAEWTRV [PTPN18, Q99952]; below the threshold
AEASVACSLC [PTGIR, P43119]; below the threshold
EDPRVEVTQF [SLC22A9, Q8IVM8]; below the threshold
TISFTQTSQF [SLC1A1, P43005]; below the threshold

Suppose we examine the binder TNSRHGETTV [FZD2, Q14332] ; what pKd value has been reported?
below the threshold

Could you tell me which pKd is on file for SRSVVESDEL [MYPN, Q86TC9] ?
below the threshold

Recorded pKd for AAVENKVTDL [PLXNB1, O43157] , please?
below the threshold
